target under test: POLγA:G848S (Homo sapiens, UniProt P54098, G848S)
assay summary: DNA polymerization assay, POLγA:G848S mutant
Type: biochemical
measurement setup: stimulation of polymerase activity, primed M13mp18 ssDNA, 37° C. 2 hours; read-out: G848S AC50
Listing of recorded AC50 by entry.
property measured: AC50 (µM)

[[record]]
molecule = "Cc1cc(S(=O)(=O)Nc2ccc3ccn(C)c3c2)c(C)cc1Cl"
target_under_test = "POLγA:G848S (Homo sapiens, UniProt P54098, G848S)"
unit_descriptor = "µM"
sign = "="
data_value = 98

[[record]]
molecule = "Cc1cc(S(=O)(=O)Nc2ccc(F)c(C(=O)N3CCC[C@H]3C)c2)c(C)cc1Cl"
target_under_test = "POLγA:G848S (Homo sapiens, UniProt P54098, G848S)"
unit_descriptor = "µM"
sign = "="
data_value = 14

[[record]]
molecule = "Cc1cc(S(=O)(=O)Nc2cn(-c3ccccc3)cn2)c(C)cc1Cl"
target_under_test = "POLγA:G848S (Homo sapiens, UniProt P54098, G848S)"
unit_descriptor = "µM"
sign = ">"
data_value = 100

[[record]]
molecule = "Cc1cc(S(=O)(=O)Nc2cccc(C(=O)N3CCc4cn[nH]c4C3)c2)c(C)cc1Cl"
target_under_test = "POLγA:G848S (Homo sapiens, UniProt P54098, G848S)"
unit_descriptor = "µM"
sign = "="
data_value = 7


====

Listing of recorded log10 of AC50 by entry.
target under test: POLγA:G848S (Homo sapiens, UniProt P54098, G848S)
Sequence (P54098 1-1239 G848S): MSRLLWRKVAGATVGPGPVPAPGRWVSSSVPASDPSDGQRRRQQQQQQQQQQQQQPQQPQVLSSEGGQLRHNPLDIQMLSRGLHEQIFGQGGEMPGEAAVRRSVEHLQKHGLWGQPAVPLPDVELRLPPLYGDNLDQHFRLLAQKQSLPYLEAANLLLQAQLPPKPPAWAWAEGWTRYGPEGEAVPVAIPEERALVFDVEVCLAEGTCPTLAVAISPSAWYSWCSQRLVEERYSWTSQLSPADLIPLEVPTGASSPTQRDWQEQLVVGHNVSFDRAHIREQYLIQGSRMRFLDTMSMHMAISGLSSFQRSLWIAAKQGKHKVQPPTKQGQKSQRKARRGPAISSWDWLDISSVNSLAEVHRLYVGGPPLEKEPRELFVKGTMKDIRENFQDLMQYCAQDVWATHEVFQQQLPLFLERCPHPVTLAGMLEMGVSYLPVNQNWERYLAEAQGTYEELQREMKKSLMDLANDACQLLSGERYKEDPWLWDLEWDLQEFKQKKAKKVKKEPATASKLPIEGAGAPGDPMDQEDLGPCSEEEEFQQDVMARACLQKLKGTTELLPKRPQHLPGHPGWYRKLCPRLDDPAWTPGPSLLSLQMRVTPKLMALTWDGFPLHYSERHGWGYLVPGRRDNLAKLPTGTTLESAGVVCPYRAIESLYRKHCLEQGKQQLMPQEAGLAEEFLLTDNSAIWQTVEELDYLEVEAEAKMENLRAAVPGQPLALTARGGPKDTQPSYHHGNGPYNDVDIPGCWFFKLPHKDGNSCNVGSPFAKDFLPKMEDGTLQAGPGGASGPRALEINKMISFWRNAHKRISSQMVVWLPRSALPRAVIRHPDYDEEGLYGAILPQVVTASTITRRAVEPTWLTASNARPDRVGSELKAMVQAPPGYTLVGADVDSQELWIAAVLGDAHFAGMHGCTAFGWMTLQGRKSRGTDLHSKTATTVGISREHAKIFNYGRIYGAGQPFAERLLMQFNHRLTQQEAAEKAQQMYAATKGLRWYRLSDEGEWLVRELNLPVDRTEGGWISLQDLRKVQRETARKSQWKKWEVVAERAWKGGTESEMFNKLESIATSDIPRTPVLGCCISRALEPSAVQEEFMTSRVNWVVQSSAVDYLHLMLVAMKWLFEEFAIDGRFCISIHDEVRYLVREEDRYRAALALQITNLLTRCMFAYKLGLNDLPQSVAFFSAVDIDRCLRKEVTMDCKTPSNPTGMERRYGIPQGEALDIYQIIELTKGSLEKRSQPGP
Sequence (Q9UHN1 1-485 partner): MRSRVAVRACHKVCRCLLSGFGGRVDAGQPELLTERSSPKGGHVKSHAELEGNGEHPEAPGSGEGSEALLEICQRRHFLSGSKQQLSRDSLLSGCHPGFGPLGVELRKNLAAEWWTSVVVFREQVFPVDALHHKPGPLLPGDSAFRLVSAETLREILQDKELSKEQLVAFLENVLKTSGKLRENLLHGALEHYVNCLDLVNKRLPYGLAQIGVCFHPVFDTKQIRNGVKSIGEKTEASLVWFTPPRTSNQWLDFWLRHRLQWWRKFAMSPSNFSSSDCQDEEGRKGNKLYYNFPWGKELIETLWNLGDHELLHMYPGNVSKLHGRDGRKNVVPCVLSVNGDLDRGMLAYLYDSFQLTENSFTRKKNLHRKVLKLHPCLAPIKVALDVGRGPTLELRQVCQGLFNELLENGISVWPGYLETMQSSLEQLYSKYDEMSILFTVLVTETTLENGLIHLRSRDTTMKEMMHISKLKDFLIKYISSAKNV
assay summary: DNA polymerization assay, POLγA:G848S mutant
Type: biochemical
measurement setup: stimulation of polymerase activity, primed M13mp18 ssDNA, 37° C. 2 hours; read-out: G848S AC50
property measured: log10 of AC50 (log10 of the value in µM)

[[record]]
molecule = "O=S(=O)(Nc1csc(-c2ccccc2)n1)c1cccc(C(F)(F)F)c1"
target_under_test = "POLγA:G848S (Homo sapiens, UniProt P54098, G848S)"
property_measured = "log10 of AC50"
data_value = 0.30

[[record]]
molecule = "Cc1cc(S(=O)(=O)Nc2cccc(C(=O)N3CCC[C@H]3CO)c2)c(C)cc1Cl"
target_under_test = "POLγA:G848S (Homo sapiens, UniProt P54098, G848S)"
property_measured = "log10 of AC50"
data_value = 1.83

[[record]]
molecule = "Cc1cc(Cl)ccc1S(=O)(=O)Nc1cccc(C(=O)N2CCC[C@H]2C)c1"
target_under_test = "POLγA:G848S (Homo sapiens, UniProt P54098, G848S)"
property_measured = "log10 of AC50"
data_value = 0.95

[[record]]
molecule = "Cc1cc(S(=O)(=O)Nc2cc(C(=O)N3CCC[C@H]3C)ccc2F)c(C)cc1Cl"
target_under_test = "POLγA:G848S (Homo sapiens, UniProt P54098, G848S)"
property_measured = "log10 of AC50"
data_value = 1.04

[[record]]
molecule = "Cc1ccc(C)c(S(=O)(=O)Nc2cccc(C(=O)N3CCOCC3)c2)c1"
target_under_test = "POLγA:G848S (Homo sapiens, UniProt P54098, G848S)"
property_measured = "log10 of AC50"
data_value = 1.52

[[record]]
molecule = "Cc1cc(S(=O)(=O)Nc2cccc(C(=O)N[C@H](C)c3ccccc3)c2)c(C)cc1Cl"
target_under_test = "POLγA:G848S (Homo sapiens, UniProt P54098, G848S)"
property_measured = "log10 of AC50"
data_value = 1.11

[[record]]
molecule = "Cc1cc(S(=O)(=O)Nc2cccc(C(=O)N3CCCC4(CC4)C3)c2)c(C)cc1Cl"
target_under_test = "POLγA:G848S (Homo sapiens, UniProt P54098, G848S)"
property_measured = "log10 of AC50"
data_value = 0.95

[[record]]
molecule = "Cc1cc(S(=O)(=O)Nc2cccc(C(=O)N3CCCC3)c2)c(C)cc1Cl"
target_under_test = "POLγA:G848S (Homo sapiens, UniProt P54098, G848S)"
property_measured = "log10 of AC50"
data_value = 0.30

[[record]]
molecule = "CC[C@@H]1CCCN1C(=O)c1cccc(NS(=O)(=O)c2cc(C)c(Cl)cc2C)c1"
target_under_test = "POLγA:G848S (Homo sapiens, UniProt P54098, G848S)"
property_measured = "log10 of AC50"
data_value = 1.08

[[record]]
molecule = "Cc1cc(S(=O)(=O)Nc2cccc(-c3nccs3)c2)c(C)cc1Cl"
target_under_test = "POLγA:G848S (Homo sapiens, UniProt P54098, G848S)"
property_measured = "log10 of AC50"
data_value = 0.30

[[record]]
molecule = "Cc1cc(S(=O)(=O)Nc2cccc(-c3ncc(CO)s3)c2)c(C)cc1Cl"
target_under_test = "POLγA:G848S (Homo sapiens, UniProt P54098, G848S)"
property_measured = "log10 of AC50"
data_value = 0.48

[[record]]
molecule = "Cc1cc(S(=O)(=O)Nc2cccc(C(=O)N3CCCC[C@H]3C)c2)c(C)cc1Cl"
target_under_test = "POLγA:G848S (Homo sapiens, UniProt P54098, G848S)"
property_measured = "log10 of AC50"
data_value = 0.78

[[record]]
molecule = "Cc1cc(F)ccc1S(=O)(=O)Nc1csc(-c2ccccc2)n1"
target_under_test = "POLγA:G848S (Homo sapiens, UniProt P54098, G848S)"
property_measured = "log10 of AC50"
data_value = 0.30

